The measurements presented in this section are drawn from patent US6392055B1.

- Test system: isolated bovine brain tubulin
- Assay Protocol: Inhibition of GTP/glutamate-induced tubulin polymerization (turbidimetric, 30° C.)
- Assay type: biochemical
- Test Parameters: 5 μM compound
Readout Name: % TPI 5 μM (%)
The response must be a number in % with no trailing unit.

Q: What does the data say about its % TPI 5 μM? Entry: C=CC[C@@H](CC/C(C)=C/C=C/CC/C=C\[C@@H]1CSC([C@@H]2C[C@@H]2C)=N1)OC [curacin A]
Result: 98

Q: What does the data say about its % TPI 5 μM? Entry: C=CC[C@@H](CC/C(C)=C/C=C/CC/C=C\[C@@H]1COC(C(C)(C)C)=N1)OC [JRC1]
Result: 0

Q: What does the data say about its % TPI 5 μM? Entry: C=CCC(CCC(C)=CC=CCCC=CC1COC(C=Cc2ccccc2)=N1)OC (stereo not shown) [JRC5]
Result: 29

Q: What does the data say about its % TPI 5 μM? Entry: C=CC[C@@H](CC[C@@]1(C)C[C@H]1[C@H]1C[C@@H]1CC/C=C\[C@@H]1CSC([C@@H]2C[C@@H]2C)=N1)OC [JR DCCA]
Result: 0
